Molecular target: T1, human CD40 extracellular domain with C-terminal His-AviTag (human, UniProt P25942 21-193)
T1 construct: not shown: C-terminal His-AviTag
T1 sequence (P25942 21-193): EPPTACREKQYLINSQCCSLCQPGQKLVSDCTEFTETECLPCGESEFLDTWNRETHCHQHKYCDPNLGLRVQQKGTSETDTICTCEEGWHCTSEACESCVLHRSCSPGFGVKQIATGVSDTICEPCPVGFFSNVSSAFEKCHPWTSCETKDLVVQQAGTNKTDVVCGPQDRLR
Assay: SPR, antibody captured, CD40 ECD analyte;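 also: biacore SPR at 25 °C in PBS-T pH 7.4, CD40 ECD analyte from 300 nM in 1:3 series, 300 s association, up to 1200 s dissociation, double-referenced, Langmuir 1:1 fit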
Rule: Kd below 3 nM gives 1 (yes), anything at or above gives 0 (no).

P1AE1002, humanized anti-CD40 antibody VH1b/VL1a, huIgG1_LALA_PG (antibody, V domains shown, huIgG1 with effector silent Fc (P329G, L234A, L235A)) VH: QVQLVQSGAEVKKPGASVKVSCKASGYSFTGYYIHWVRQAPGKSLEWMGRVIPNAGGTSYNQKFKGRVTLTVDKSISTAYMELSRLRSDDTAVYYCAREGIYWWGQGTTVTVSS VL: DIVMTQTPLSLSVTPGQPASISCRSSQSLVHSNGNTFLHWYLQKPGQSPQLLIYTVSNRFSGVPDRFSGSGSGTDFTLKISRVEAEDVGVYFCSQTTHVPWTFGGGTKVEIK    1 (yes)
P1AE1000, humanized anti-CD40 antibody VH1d/VL1c, huIgG1_LALA_PG (antibody, V domains shown, huIgG1 with effector silent Fc (P329G, L234A, L235A)) VH: QVQLVQSGAEVKKPGASVKVSCKASGYSFTGYYIHWVRQAPGQSLEWMGRVIPNAGGTSYNQKFKGRVTLSVDKSISTAYMELSRLRSDDTAVYYCAREGIYWWGQGTTVTVSS VL: DVVVTQTPLSLSVTPGQPASISCRSSQSLVHSNGNTFLHWYLQKPGQSPQLLIYTVSNRFSGVPDRFSGSGSGTDFTLKISRVEAEDVGVYFCSQTTHVPWTFGGGTKVEIK    0 (no)
P1AE0406, humanized anti-CD40 antibody VH2c/VL2b, huIgG1_LALA_PG (antibody, V domains shown, huIgG1 with effector silent Fc (P329G, L234A, L235A); also called VL2b/VH2c) VH: EVQLLESGGGLVQPGGSLRLSCAASGYSFTGYYIHWVRQAPGKGLEWVGRVIPNAGGTSYNQKFKGRFTISVDNSKNTAYLQMNSLRAEDTAVYYCAREGIYWWGHGTTVTVSS VL: DIQMTQSPSSLSASVGDRVTITCRSSQSLVHSNGNTFLHWYQQKPGQSPKLLIYTVSNRFSGVPSRFSGSGSGTDFTLTISSLQPEDFATYFCSQTTHVPWTFGGGTKVEIK    0 (no)

### Prompt Decide: Kd of P1AE0999, humanized anti-CD40 antibody VH1d/VL1a, huIgG1_LALA_PG (antibody, V domains shown, huIgG1 with effector silent Fc (P329G, L234A, L235A)) VH: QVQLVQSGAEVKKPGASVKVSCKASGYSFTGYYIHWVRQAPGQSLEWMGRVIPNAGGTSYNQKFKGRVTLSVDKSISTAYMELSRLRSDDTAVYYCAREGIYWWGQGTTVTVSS VL: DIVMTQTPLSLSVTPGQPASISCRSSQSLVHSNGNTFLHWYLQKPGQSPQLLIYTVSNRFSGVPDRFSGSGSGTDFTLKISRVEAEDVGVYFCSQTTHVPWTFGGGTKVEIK strictly below 3 nM?
### Response 1 (yes)
